These data points were gathered from ChEMBL document CHEMBL5226284.

biological target: Sphingolipid delta(4)-desaturase DES1 (Rattus norvegicus); assay: Inhibition of rat liver microsome DES1 incubated for 20 min in presence of NADH by liquid scintillation counter method; format: microsomes
Sequence (Q5XIF5 whole entry): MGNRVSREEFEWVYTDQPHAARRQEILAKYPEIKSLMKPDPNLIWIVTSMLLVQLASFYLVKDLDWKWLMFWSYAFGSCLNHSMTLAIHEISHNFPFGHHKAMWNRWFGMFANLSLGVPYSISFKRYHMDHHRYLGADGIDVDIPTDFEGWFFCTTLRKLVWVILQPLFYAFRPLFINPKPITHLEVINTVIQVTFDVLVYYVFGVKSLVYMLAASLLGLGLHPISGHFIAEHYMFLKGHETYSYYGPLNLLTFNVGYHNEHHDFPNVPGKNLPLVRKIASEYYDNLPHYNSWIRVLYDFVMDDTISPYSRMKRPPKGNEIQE
attributeMeasured: IC50 (nM)

According to the records, this compound CC1=C(/C=C/C(C)=C/C=C/C(C)=C/C(=O)Nc2ccc(O)cc2)C(C)(C)CCC1 [FENRETINIDE] displays IC50 of 2320

According to the records, this compound CC1=C(/C=C/C(C)=C/C=C/C(C)=C/C(=O)Nc2ccc(O)cc2)C(C)(C)CCC1=O displays IC50 of 1680

----------
Target: Sphingomyelin phosphodiesterase 2 (Mus musculus, UniProt O70572)
Sequence (O70572 whole entry): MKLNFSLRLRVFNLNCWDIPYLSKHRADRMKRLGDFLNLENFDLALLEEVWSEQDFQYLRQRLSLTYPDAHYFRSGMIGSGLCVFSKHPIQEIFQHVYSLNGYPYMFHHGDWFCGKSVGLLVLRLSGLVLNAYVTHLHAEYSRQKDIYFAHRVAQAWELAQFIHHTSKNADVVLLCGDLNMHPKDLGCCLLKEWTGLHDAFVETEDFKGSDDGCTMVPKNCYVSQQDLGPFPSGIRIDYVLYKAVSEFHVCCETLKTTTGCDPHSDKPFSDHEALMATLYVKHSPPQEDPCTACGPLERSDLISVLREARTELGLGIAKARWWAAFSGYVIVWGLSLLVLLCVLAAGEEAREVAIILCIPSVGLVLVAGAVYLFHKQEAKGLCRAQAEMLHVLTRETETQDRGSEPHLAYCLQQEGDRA
attributeMeasured: IC50 (µM)

[a] CCN(CC)c1ccc(C2NC(=S)NC(C)=C2C(=O)Nc2ccccc2OC)cc1 (configuration not stated)
[b] S=c1[nH]nc(-c2cccs2)n1CC1CCCCC1
Q. IC50 comparison. Which is larger, a or b ? Indicate which entry you chose by stating its label.
A. b
(b: 2.5 µM, a: 0.9 µM)

----------
assay: Inhibition of rat brain aSMase using HMU-PC as substrate incubated for 3 hrs by fluorescence plate reader assay; type: tissue-based
attributeMeasured: IC50 (µM)

According to the records, this compound CCCCCCCCCC(N)(P(=O)(O)O)P(=O)(O)O displays IC50 of 0.02

According to the records, this compound CCCCCCCCCCCC(O)(P(=O)(O)O)P(=O)(O)O displays IC50 of 0.07

[I] CCCCCCCC(N)(P(=O)(O)O)P(=O)(O)O
[II] CCCCCCCCCC(O)(P(=O)(O)O)P(=O)(O)O
Q. IC50 comparison. Which is larger, I or II ? Indicate which entry you chose by stating its label.
A. II

----------
assay: Inhibition of Bacillus cereus nSMase
attributeMeasured: IC50 (µM)
Just the number please, in µM, no unit attached.

According to the records, this molecule O=c1[nH]c(=S)[nH]c(-c2ccccc2)c1Cc1c(O)ccc2ccccc12 displays IC50 of 5

----------
molecular target: Ceramide synthase 2 (Homo sapiens, UniProt Q96G23); test: Competitive inhibition of CerS2 in HPAC cells using DHSph as substrate by LC/MS/MS analysis
Sequence (Q96G23 whole entry): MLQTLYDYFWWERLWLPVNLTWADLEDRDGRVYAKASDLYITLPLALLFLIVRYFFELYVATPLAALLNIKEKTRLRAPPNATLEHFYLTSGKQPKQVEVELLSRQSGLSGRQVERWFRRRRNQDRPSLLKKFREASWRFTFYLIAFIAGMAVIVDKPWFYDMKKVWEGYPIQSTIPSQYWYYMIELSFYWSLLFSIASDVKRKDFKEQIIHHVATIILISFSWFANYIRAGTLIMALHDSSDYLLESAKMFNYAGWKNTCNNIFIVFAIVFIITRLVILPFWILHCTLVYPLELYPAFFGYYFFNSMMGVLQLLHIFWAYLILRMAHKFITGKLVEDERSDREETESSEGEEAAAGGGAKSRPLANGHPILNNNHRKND
attributeMeasured: Ki (µM)
Just the number please, in µM, no unit attached.

According to the records, this molecule CCCCCCCCc1ccc(CCC(N)(CO)CO)cc1 [FINGOLIMOD] displays Ki of 2.15

----------
Molecular target: Sphingolipid delta(4)-desaturase DES1 (Homo sapiens, UniProt O15121)
Sequence (O15121 whole entry): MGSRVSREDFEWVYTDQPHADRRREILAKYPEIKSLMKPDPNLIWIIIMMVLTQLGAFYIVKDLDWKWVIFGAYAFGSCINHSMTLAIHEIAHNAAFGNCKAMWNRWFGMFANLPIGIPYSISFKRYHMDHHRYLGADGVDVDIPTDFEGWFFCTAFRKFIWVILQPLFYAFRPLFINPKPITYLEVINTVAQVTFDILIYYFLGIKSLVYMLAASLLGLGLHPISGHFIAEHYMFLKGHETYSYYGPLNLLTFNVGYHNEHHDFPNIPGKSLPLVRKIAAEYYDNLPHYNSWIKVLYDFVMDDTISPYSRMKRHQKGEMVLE
Test: Inhibition of DES1 in human HGC-27 cell lysates
Format: subcellular
attributeMeasured: IC50 (µM)

[I] CCCCCCCCCCC/C=C/CC[C@@H](O)[C@H](CO)NC(=O)CCCCCCC
[II] CCCCCCCCCCCCCC1=C([C@@H](O)[C@H](CO)NC(=O)CCCCCCC)C1
Q. Lower IC50: I or II ? Indicate which entry you chose by stating its label.
A. II
(II: 0.052 µM, I: 0.155 µM)

----------
target: Sphingomyelin phosphodiesterase 2 (Rattus norvegicus, UniProt Q9ET64); experiment: Inhibition of rat brain microsomes nSMase; set-up: species or system Microsome
Sequence (Q9ET64 whole entry): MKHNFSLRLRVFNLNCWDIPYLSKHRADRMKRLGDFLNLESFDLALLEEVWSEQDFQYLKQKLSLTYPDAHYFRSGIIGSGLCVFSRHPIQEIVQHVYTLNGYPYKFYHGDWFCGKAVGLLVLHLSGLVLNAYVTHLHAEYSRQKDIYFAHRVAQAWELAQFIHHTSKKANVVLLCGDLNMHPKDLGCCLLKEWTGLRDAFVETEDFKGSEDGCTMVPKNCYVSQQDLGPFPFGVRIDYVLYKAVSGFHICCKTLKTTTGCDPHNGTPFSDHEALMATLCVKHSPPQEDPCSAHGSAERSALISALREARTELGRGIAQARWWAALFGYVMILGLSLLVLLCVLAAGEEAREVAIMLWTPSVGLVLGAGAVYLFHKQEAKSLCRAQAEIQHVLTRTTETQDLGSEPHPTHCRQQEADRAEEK
pIC50: −log10 of the molar value.
attributeMeasured: pIC50

Item CC(C)(O)/C=C/C1=CC(=O)C=CC1=O ; assay system Sphingomyelin phosphodiesterase 2 (Rattus norvegicus, UniProt Q9ET64); pIC50 reported as 5.38

Item CC(C)(O)/C=C/c1cc(O)ccc1O ; assay system Sphingomyelin phosphodiesterase 2 (Rattus norvegicus, UniProt Q9ET64); pIC50 reported as 4.77

[1] N=C(N)N/N=C/c1cc2ccccc2[nH]1
[2] COC(C)(C)/C=C/c1cc(O)ccc1O
[3] CC(C)(O)C(O)Cc1cc(O)ccc1O (stereo unspecified)
[4] CCCCCCCCC/C=N/NC(=N)N
Q. Highest pIC50 first, then in falling order down to the smallest. Returns: the labels arranged in the requested order.
A. 1, 4, 2, 3
(1: 5.30, 4: 5.09, 2: 4.80, 3: 4.47)

----------
assay: Mixed type inhibition of human recombinant glucocerebrosidase at pH 4.3
pIC50: −log10 of the molar value.
attributeMeasured: pIC50

According to the records, this compound Nc1c(Br)cc(Br)cc1CN[C@H]1CC[C@H](O)CC1 displays pIC50 of < 2.96

----------
assay: Inhibition of bovine brain microsomes nSMase; parameters: species or system Bos taurus, Microsome
attributeMeasured: IC50 (µM)

[I] CCCCCCCCCCCCCCCC(=O)N[C@H](CC(F)(F)P(=O)(O)O)[C@@H](O)c1ccccc1
[II] CCCCCCCCCCCCCCCC(=O)N[C@@H](CC(F)(F)P(=O)(O)O)[C@H](O)c1ccccc1
Q. IC50 comparison. Which is larger, I or II ? Indicate which entry you chose by stating its label.
A. II

----------
experiment: Inhibition of rat brain aSMase using HMU-PC as substrate incubated for 3 hrs by fluorescence based analysis; assay type: tissue-based
attributeMeasured: IC50 (µM)

According to the records, this molecule CCCCCCCCOS(=O)(=O)O[C@@H]1[C@H](O)[C@H](OP(=O)(O)O)[C@@H](O)[C@H](OP(=O)(O)O)[C@H]1O displays IC50 of 4

[1] CCCCCCOS(=O)(=O)O[C@@H]1[C@H](O)[C@H](OP(=O)(O)O)[C@@H](O)[C@H](OP(=O)(O)O)[C@H]1O
[2] CCCCCCCC(=O)OC[C@H](COP(=O)(O)O[C@@H]1[C@H](O)[C@H](OP(=O)(O)O)[C@@H](O)[C@H](OP(=O)(O)O)[C@H]1O)OC(=O)CCCCCCC
Q. IC50 comparison. Which is larger, 1 or 2 ? Indicate which entry you chose by stating its label.
A. 1

----------
target: Sphingolipid delta(4)-desaturase DES1 (Homo sapiens); experiment: Inhibition of DES1 (unknown origin)
attributeMeasured: pIC50
Scale explanation: pIC50 corresponds to minus log10 of a concentration expressed in moles per litre.

Item CC1=C(/C=C/C(C)=C/C=C/C(C)=C/C(=O)Nc2ccc(O)cc2)C(C)(C)CCC1 [FENRETINIDE] ; assay system Sphingolipid delta(4)-desaturase DES1 (Homo sapiens); pIC50 reported as 7.00

----------
experiment: Mixed type inhibition of human recombinant glucocerebrosidase at pH 6.7
attributeMeasured: IC50 (µM)
Just the number please, in µM, no unit attached.

According to the records, this molecule Nc1c(Br)cc(Br)cc1CN[C@H]1CC[C@H](O)CC1 [AMBROXOL] displays IC50 of 8.1

----------
experiment: Inhibition of bovine brain microsomes nSMase assessed as inhibition constant; set-up: species or system Bos taurus, Microsome
attributeMeasured: Ki (nM)

[a] CCCCCCCCCCCCNC(=S)N[C@H](CO)[C@H](O)c1ccc([N+](=O)[O-])cc1
[b] CCCCCCCCCCCCCCNC(=S)N[C@H](CO)[C@H](O)c1ccc([N+](=O)[O-])cc1
Q. Ki comparison. Which is larger, a or b ? Indicate which entry you chose by stating its label.
A. b

----------
test: Mixed type inhibition of human recombinant glucocerebrosidase at pH 5.6
attributeMeasured: pIC50
Scale explanation: pIC50 corresponds to minus log10 of a concentration expressed in moles per litre.

According to the records, this compound Nc1c(Br)cc(Br)cc1CN[C@H]1CC[C@H](O)CC1 [AMBROXOL] displays pIC50 of 4.51
